What EC50 was measured for each of the following?
- Subject Of Test: rat CB2 receptor (rCB2) (Rattus norvegicus)
- Sequence (Q9QZN9 1-360): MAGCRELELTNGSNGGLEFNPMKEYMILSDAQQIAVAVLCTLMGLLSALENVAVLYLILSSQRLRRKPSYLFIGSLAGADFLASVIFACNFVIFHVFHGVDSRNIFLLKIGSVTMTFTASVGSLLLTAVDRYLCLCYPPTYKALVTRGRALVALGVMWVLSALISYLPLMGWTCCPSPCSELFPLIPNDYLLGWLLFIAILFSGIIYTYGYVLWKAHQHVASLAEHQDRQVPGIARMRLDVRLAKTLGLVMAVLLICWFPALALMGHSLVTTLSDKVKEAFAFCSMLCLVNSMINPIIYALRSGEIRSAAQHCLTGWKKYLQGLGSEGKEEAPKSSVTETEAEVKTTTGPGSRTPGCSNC

Check out these entries, answers already filled in.
CC(C)CN1CCn2c(-c3ccccc3)nc(C(=O)NC3C4(C)CCC(C4)C3(C)C)c2C1 (stereo not drawn); 10 to 100 nM
CC(C)(C)C(=O)N1CCn2c(-c3ccccc3)nc(C(=O)NC3C4(C)CCC(C4)C3(C)C)c2C1 (stereo not drawn); 10 to 100 nM
CNC(=O)[C@@H](NC(=O)c1nc(-c2ccccc2)n2c1CN(S(=O)(=O)c1ccc(Cl)cc1)CC2)C(C)(C)C; 10 to 100 nM
CC(C)(C)[C@@H](CO)NC(=O)c1nc(-c2ccccc2)n2c1CN(CC1CC1)CC2; 10 to 100 nM
CCCN1CCn2c(-c3ccccc3)nc(C(=O)Nc3ccccc3)c2C1; 10 to 100 nM

I'm hoping you can list EC50 for every molecule here, please.
1. CNC(=O)[C@@H](NC(=O)c1nc(-c2cccc(C(F)(F)F)c2)n2c1CNCC2)C(C)(C)C
2. Cc1ccc(-c2nc(C(=O)N[C@H](c3nc(C)no3)C(C)(C)C)c3n2CCCN(C)C3)c(F)c1
3. CNC(=O)[C@@H](NC(=O)c1nc(-c2ccsc2)n2c1CN(CC1CC1)CC2)C(C)(C)C
4. COC(=O)N1CCn2c(-c3ccc(Cl)cc3)nc(C(=O)NCCC(C)C)c2C1
5. Cc1noc([C@@H](NC(=O)c2nc(-c3ccccc3)n3c2CN(C(C)C)CC3)C(C)(C)C)n1

**A:**
["10 to 100 nM", "10 to 100 nM", "10 to 100 nM", "10 to 100 nM", "0.1 to 10 nM"]

###

For each entry below, report its EC50 value.
- Subject Of Test: rat CB2 receptor (rCB2) (Rattus norvegicus, UniProt Q9QZN9)
- Sequence (Q9QZN9 1-360): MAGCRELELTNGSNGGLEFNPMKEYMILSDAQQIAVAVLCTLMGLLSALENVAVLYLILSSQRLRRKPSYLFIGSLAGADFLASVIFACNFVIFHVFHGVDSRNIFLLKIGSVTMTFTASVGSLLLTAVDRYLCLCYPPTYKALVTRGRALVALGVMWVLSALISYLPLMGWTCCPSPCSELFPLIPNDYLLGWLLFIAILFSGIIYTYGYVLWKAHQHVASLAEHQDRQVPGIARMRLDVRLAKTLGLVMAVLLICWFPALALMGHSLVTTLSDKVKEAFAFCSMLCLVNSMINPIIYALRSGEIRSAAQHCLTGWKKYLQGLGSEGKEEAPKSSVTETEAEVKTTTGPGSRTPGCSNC

Observe how each entry below is paired with its result.
CNC(=O)[C@@H](NC(=O)c1nc(C2=CCC(C)CC2)n2c1CN(C)CC2)C(C)(C)C (stereo partly shown); 10 to 100 nM
CNC(=O)[C@@H](NC(=O)c1nc(-c2ccccc2)n2c1CN(Cc1ccco1)CC2)C(C)(C)C; 10 to 100 nM
CCN1CCn2c(-c3ccccc3)nc(C(=O)NC3C4(C)CCC(C4)C3(C)C)c2C1 (stereo not shown); 0.1 to 10 nM

Now let's try a different one.
**Q:** I have this compound here, `COC(=O)N1CCn2c(-c3ccc(Cl)cc3)nc(C(=O)N[C@H](CO)C(C)(C)C)c2C1` , and I need its recorded EC50.
**A:** 10 to 100 nM

###

For reference, EC50 measured on human CB1 receptor (hCB1) (Homo sapiens):

CNC(=O)[C@@H](NC(=O)c1nc(-c2cccc3c2OC(F)(F)O3)n2c1CN(C)CCC2)C(C)(C)C [Compound 682]; > 10 µM
CN1CCCn2c(-c3cc(F)c(F)cc3F)nc(C(=O)N3CCOCC3)c2C1 [Compound 859]; > 10 µM
COC(=O)C1CN(C(=O)c2nc(-c3cc(Cl)c(F)cc3F)n3c2CN(C)CCC3)CCC1=O (stereo not drawn) [Compound 826]; > 10 µM

List EC50 for every entry below, keeping the order given.
1. CN1CCCn2c(-c3cc(Cl)c(F)cc3F)nc(C(=O)N3CC[C@H](O)C3)c2C1 [Compound 910]
2. CN1CCN(CC(C)(C)NC(=O)c2nc(-c3cc(Cl)c(F)cc3F)n3c2CN(C)CCC3)CC1 [Compound 879]

**A:**
["> 10 µM", "> 10 µM"]

Take each entry in turn and give its EC50.
1. CNC(=O)[C@@H](NC(=O)c1nc(-c2cc(F)c(F)cc2OC(C)C)n2c1CN(C)CCC2)C(C)(C)C [Compound 651]
2. CC(=O)NC[C@@H](NC(=O)c1nc(-c2cc(Cl)ccc2F)n2c1CN(C)CCC2)C(C)(C)C [Compound 770]
3. CNC(=O)[C@@H](NC(=O)c1nc(-c2cnn(-c3ccccc3)c2C)n2c1CN(C)CCC2)C(C)(C)C [Compound 709]

**A:**
1. > 10 µM
2. > 10 µM
3. > 10 µM

Field: EC50. Fill in for each record below.
1. CN1CCCn2c(-c3cc(Cl)c(F)cc3F)nc(C(=O)NC3(C(=O)N4CC(F)(F)C4)CC3)c2C1 [Compound 873]
2. CNC(=O)[C@@H](NC(=O)c1nc(C2CCN(C(=O)C(C)C)CC2)n2c1CN(C)CCC2)C(C)(C)C [Compound 728]
3. CNC(=O)C1(NC(=O)c2nc(-c3cc(F)c(F)cc3F)n3c2CN(C)CCC3)CCCC1 [Compound 719]
4. CN1CCCn2c(-c3cc(F)c(F)cc3F)nc(C(=O)N3CCC4(CCNC4=O)CC3)c2C1 [Compound 787]

**A:**
> 10 µM
> 10 µM
> 10 µM
> 10 µM

Working through the 3 compounds below one at a time, give EC50 for each.
1. CNC(=O)[C@H](CC(C)(C)C)NC(=O)c1nc(-c2ccc(F)c(Cl)c2)n2c1CN(C)CCC2 [Compound 546]
2. CNC(=O)[C@@H](NC(=O)c1nc(-c2cc(F)c(F)cc2F)n2c1CN(c1cncc(Cl)n1)CCC2)C(C)(C)C [Compound 718]
3. CNC(=O)[C@@H](NC(=O)c1nc(-c2ccc(C(C)=O)s2)n2c1CN(C)CCC2)C(C)(C)C [Compound 704]

**A:**
1: > 10 µM; 2: > 10 µM; 3: > 10 µM

###

EC50, rat CB2 receptor (rCB2) (Rattus norvegicus), per-entry values.

Use the examples below as a reference point.
CC(C)CN1CCn2c(-c3ccccc3)nc(C(=O)NC3CCCCC3)c2C1; 0.1 to 10 nM
CNC(=O)[C@@H](NC(=O)c1nc(-c2ccccc2)n2c1CN(S(C)(=O)=O)CC2)C(C)(C)C; 10 to 100 nM
CNC(=O)[C@@H](NC(=O)c1nc(-c2ccc(Cl)cc2F)n2c1CN(C(=O)OC(C)(C)C)CCC2)C(C)(C)C; 10 to 100 nM

API: the following record is the query input.
**Q:** Give the measured EC50 of `CNC(=O)[C@@H](NC(=O)c1nc(-c2ccc3c(c2)OCCO3)n2c1CN(C)CCC2)C(C)(C)C` .
**A:** 10 to 100 nM

###

- Subject Of Test: UniProtKB Q9QZN9
pEC50: −log10 of the molar value.
Reported Property: pEC50

COC(=O)N1CCn2c(-c3ccccc3)nc(C(=O)NC3C4(C)CCC(C4)C3(C)C)c2C1 (stereo not shown); 7.00 to 8.00
CCN1CCn2c(-c3ccc(Cl)cc3)nc(C(=O)NCCC(C)C)c2C1; 7.00 to 8.00
CC(C)CN1CCn2c(-c3ccccc3)nc(C(=O)NCC3CCOCC3)c2C1; 7.00 to 8.00

Would you mind listing pEC50 for each of the following molecules?
1. CNC(=O)[C@@H](NC(=O)c1nc(-c2cc(Cl)ccc2F)n2c1CN(C)CC2)C(C)(C)C
2. CNC(=O)[C@@H](NC(=O)c1nc(-c2ccccc2)n2c1CN(S(=O)(=O)C1CC1)CC2)C(C)(C)C

**A:**
1: 7.00 to 8.00; 2: 7.00 to 8.00
